target: BTK T474I (Homo sapiens (Human), UniProt Q06187, T474I)
Sequence (Q06187 whole entry T474I): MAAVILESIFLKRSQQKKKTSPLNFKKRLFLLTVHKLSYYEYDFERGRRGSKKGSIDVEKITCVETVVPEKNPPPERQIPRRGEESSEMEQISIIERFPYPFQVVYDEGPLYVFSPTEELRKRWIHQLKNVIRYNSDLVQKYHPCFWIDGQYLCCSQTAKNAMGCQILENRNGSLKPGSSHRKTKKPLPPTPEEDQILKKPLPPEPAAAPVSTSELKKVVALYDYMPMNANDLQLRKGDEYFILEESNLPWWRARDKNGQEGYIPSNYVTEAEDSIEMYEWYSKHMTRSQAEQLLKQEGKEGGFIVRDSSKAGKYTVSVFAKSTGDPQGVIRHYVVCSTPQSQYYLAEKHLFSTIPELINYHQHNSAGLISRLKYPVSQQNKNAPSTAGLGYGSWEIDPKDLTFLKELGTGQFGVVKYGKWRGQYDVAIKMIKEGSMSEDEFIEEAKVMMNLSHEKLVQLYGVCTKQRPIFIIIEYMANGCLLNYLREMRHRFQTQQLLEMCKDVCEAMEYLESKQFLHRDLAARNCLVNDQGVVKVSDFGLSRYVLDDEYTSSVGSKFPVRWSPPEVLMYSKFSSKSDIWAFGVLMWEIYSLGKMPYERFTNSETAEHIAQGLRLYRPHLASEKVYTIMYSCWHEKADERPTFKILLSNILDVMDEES
assay comment: Binding kinetics measurements (Surface Plasmon Resonance) on BTK T474I
experimental context: target residence time, SPR
Please use class 1 for Tau (h) BTK T474I (Act) under 0.8 h and class 0 for everything else, ties included.

Answered cases to consult:
- compound: "COc1cc(-c2nn3c4c(cnc(N)c24)/C=C/COCCC(=O)N[C@@H]2CCC[C@@H]3C2)ccc1C(=O)Nc1cc(C(F)(F)F)ccn1"
  category: "class 0"
- compound: "Nc1ncc2c3c1c(-c1ccc(C(=O)Nc4cc(C(F)(F)F)ccn4)cc1)nn3[C@@H]1CCC[C@H](C1)NC(=O)COCCC/C=C/2"
  category: "class 1"
- compound: "Nc1ncc2c3c1c(-c1ccc(C(=O)Nc4cc(C(F)(F)F)ccn4)cc1)nn3[C@@H]1CCC[C@H](C1)NC(=O)CCNCC/C=C/2"
  category: "class 0"
- compound: "C[C@@H]1CC(=O)N[C@@H]2CCC[C@H](C2)n2nc(-c3ccc(C(=O)Nc4cc(C(F)(F)F)ccn4)cc3)c3c(N)ncc(c32)/C=C/CCN1C"
  category: "class 0"
- compound: "C[C@H]1CN(C2COC2)CCN1c1ccc(Nc2cc(-c3ccnc(N4CCn5c(cc6c5CC(C)(C)C6)C4=O)c3CO)cn(C)c2=O)nc1 [fenebrutinib, reference compound]"
  category: "class 1"

Here is the next item to consider.
Inquiry: Consider CN1C/C=C/c2cnc(N)c3c(-c4ccc(C(=O)Nc5cc(C(F)(F)F)ccn5)cc4)nn(c23)[C@@H]2CCC[C@H](C2)NC(=O)CC1 . Does its Tau (h) BTK T474I (Act) lie strictly below 0.8 h?
Reply text: class 0

* * *

Entries with reported pIC50 on full-length wt-BTK enzyme (Homo sapiens (Human), UniProt Q06187)
Sequence (Q06187 whole entry): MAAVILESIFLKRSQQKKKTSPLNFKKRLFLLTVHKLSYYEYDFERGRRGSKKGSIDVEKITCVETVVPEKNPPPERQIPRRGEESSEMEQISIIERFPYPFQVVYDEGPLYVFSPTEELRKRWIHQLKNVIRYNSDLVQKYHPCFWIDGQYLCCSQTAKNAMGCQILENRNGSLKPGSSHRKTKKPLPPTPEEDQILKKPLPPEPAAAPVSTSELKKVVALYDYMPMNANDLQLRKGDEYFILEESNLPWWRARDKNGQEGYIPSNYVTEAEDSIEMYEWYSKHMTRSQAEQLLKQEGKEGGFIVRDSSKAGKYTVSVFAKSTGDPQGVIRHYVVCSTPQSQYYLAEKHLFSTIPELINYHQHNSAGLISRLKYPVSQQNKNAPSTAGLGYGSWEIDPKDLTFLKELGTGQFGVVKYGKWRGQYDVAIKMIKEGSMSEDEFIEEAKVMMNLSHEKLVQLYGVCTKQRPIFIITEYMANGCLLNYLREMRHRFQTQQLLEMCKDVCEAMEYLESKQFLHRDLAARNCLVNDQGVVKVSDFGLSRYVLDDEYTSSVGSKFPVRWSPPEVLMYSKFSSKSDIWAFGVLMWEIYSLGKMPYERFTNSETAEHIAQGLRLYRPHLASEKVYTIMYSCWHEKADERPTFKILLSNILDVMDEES
pIC50: −log10 of the molar value.

Before answering, review these 5 worked examples.
- compound: "Nc1ncc2c3c1c(-c1ccc(C(=O)Nc4ccccn4)cc1)nn3C1CCC[C@H](C1)NC(=O)CCCCC/C=C/2"
  target: "full-length wt-BTK enzyme (Homo sapiens (Human), UniProt Q06187)"
  pIC50: "> 8.30"
- compound: "Nc1ncc2c3c1c(-c1ccc(C(=O)Nc4ccccn4)cc1)nn3[C@@H]1CCC[C@H](C1)NC(=O)CC/C=C/C2 [Example 96a]"
  target: "full-length wt-BTK enzyme (Homo sapiens (Human), UniProt Q06187)"
  pIC50: "6.30 to 7.30"
- compound: "Nc1ncc2c3c1c(-c1ccc(C(=O)Nc4cc(C(F)(F)F)ccn4)cc1)nn3[C@@H]1CC[C@H](C1)NC(=O)[C@@H]1CCN1CC/C=C/2"
  target: "full-length wt-BTK enzyme (Homo sapiens (Human), UniProt Q06187)"
  pIC50: "> 8.30"
- compound: "Nc1ncc2c3c1c(-c1ccc(C(=O)Nc4cc(C(F)(F)F)ccn4)cc1)nn3[C@@H]1CCC[C@H](C1)NC(=O)CCCCC/C=C\\C2 [Example 101b]"
  target: "full-length wt-BTK enzyme (Homo sapiens (Human), UniProt Q06187)"
  pIC50: "> 8.30"
- compound: "C[C@@H]1CCn2nc(-c3ccc(C(=O)Nc4cc(C(F)(F)F)ccn4)cc3)c3c(N)ncc(c32)/C=C/CCN2CC[C@@H]2C(=O)N1"
  target: "full-length wt-BTK enzyme (Homo sapiens (Human), UniProt Q06187)"
  pIC50: "> 8.30"

Inquiry: Record lookup: for full-length wt-BTK enzyme (Homo sapiens (Human), UniProt Q06187), what pIC50 belongs to Nc1ncc2n3c(nc(-c4ccc(C(=O)Nc5cc(C(F)(F)F)ccn5)cc4)c13)[C@@H]1CCC[C@H](C1)NC(=O)CCOCC/C=C/2 ?
Reply text: > 8.30

Inquiry: // map Nc1ncc2c3c1c(-c1ccc(C(=O)Nc4cc(C(F)(F)F)ccn4)cc1)nn3[C@@H]1CCC[C@H](C1)C(=O)NCCCC/C=C\C2 [Example 85b] to recorded pIC50 (system: full-length wt-BTK enzyme (Homo sapiens (Human), UniProt Q06187))
Reply text: > 8.30

Inquiry: Test system full-length wt-BTK enzyme (Homo sapiens (Human), UniProt Q06187); read-out pIC50; what value for Nc1ncc2c3c1c(-c1ccc(C(=O)Nc4ccccn4)cc1)nn3[C@@H]1CCC[C@H](C1)NC(=O)CCCC/C=C/C2 [Example 100a] ?
Reply text: 6.30 to 7.30

Inquiry: Record C[C@@H]1CCn2nc(-c3ccc(C(=O)Nc4cc(C(F)(F)F)ccn4)cc3)c3c(N)ncc(c32)/C=C/CNCCCC(=O)N1 : what is its pIC50 with full-length wt-BTK enzyme (Homo sapiens (Human), UniProt Q06187)?
Reply text: > 8.30

Inquiry: Lab request: please report pIC50 under test system full-length wt-BTK enzyme (Homo sapiens (Human), UniProt Q06187) for Nc1ncc2c3c1c(-c1ccc(C(=O)Nc4ccccn4)cc1)nn3[C@@H]1CCC[C@H](C1)NC(=O)CCCCC/C=C/C2 [Example 102a]
Reply text: > 8.30

Inquiry: Hi! What's the reported pIC50 for CN1C/C=C/c2cnc(N)c3c(-c4ccc(C(=O)Nc5cc(C(F)(F)F)ccn5)cc4)nn(c23)[C@@H]2CCC[C@H](C2)NC(=O)CCCC1 on full-length wt-BTK enzyme (Homo sapiens (Human), UniProt Q06187)?
Reply text: > 8.30

Inquiry: Lookup: pIC50 / full-length wt-BTK enzyme (Homo sapiens (Human), UniProt Q06187) / Nc1ncc2c3c1c(-c1ccc(C(=O)Nc4cc(C(F)(F)F)ccn4)cc1)nn3[C@@H]1CCC[C@H](C1)NC(=O)CC/C=C/C2
Reply text: 7.30 to 8.30

Inquiry: Hello, I am looking for reported pIC50 with full-length wt-BTK enzyme (Homo sapiens (Human), UniProt Q06187) for Nc1ncc2c3c1c(-c1ccc(C(=O)Nc4cc(C(F)(F)F)ccn4)cc1)nn3[C@@H]1CCC[C@H](C1)C(=O)NCCCCC/C=C/C2 [Example 89a] . Could you help?
Reply text: 7.30 to 8.30

Recorded values, source patent US20250074911A1.
